Values were extracted from ChEMBL document CHEMBL3784986.

# system: C-X-C chemokine receptor type 3 (Homo sapiens) (UniProt P49682)
# Sequence (P49682 whole entry): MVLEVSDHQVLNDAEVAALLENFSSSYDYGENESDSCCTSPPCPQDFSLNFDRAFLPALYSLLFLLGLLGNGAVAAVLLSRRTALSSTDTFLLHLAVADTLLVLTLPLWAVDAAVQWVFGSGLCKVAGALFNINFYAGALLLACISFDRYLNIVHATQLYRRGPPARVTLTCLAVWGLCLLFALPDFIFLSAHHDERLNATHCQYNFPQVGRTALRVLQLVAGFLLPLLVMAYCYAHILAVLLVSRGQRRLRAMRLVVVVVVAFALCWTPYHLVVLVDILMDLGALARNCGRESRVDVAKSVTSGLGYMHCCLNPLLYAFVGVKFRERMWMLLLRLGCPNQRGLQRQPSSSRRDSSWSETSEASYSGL
# assay-summary: Positive allosteric modulation of human CXCR3 expressed in HEK293T cell membranes after 30 mins by [35S]GTPgammaS incorporation assay relative to CXCL11
# Type: functional
# condition-info: HEK-293T
Activity calls are given as the source filed them. The calls are words filed in the database; no cut-off is given here.
metric: Efficacy

Example compounds with recorded Efficacy:
In [3]: df
Out[3]:
                                 mol_smiles    result
0  CC(C)(C)OC(=O)N[C@@H](CCCCNC(=O)[C@@H]1Cc2ccccc2CN1)C(=O)NCC(c1ccccc1)c1ccccc1       34%
1  CC(C)(C)OC(=O)N[C@@H](CCCCNC(=O)[C@@H]1Cc2ccccc2CN1C(=O)CCC(=O)c1ccccc1)C(=O)NCC(c1ccccc1)c1ccccc1  inactive
2  N[C@@H](CCCCNC(=O)[C@@H]1Cc2ccccc2CN1C(=O)CCC(=O)c1ccccc1)C(=O)NCC(c1ccccc1)c1ccccc1  inactive
3  N[C@@H](CCCCNC(=O)[C@@H]1Cc2ccccc2CN1C(=O)CCCC(=O)c1ccccc1)C(=O)NCC(c1ccccc1)c1ccccc1  inactive
4  CC(C)(C)OC(=O)N[C@@H](CCCCNC(=O)[C@@H]1Cc2ccccc2CN1C(=O)CCC(=O)N1CCOCC1)C(=O)NCC(c1ccccc1)c1ccccc1  inactive

[in] For the compound shown here, `CC(C)(C)OC(=O)N[C@H](CCCCNC(=O)[C@@H]1Cc2ccccc2CN1C(=O)CCC(=O)c1ccccc1)C(=O)NCC(c1ccccc1)c1ccccc1` , give the reported Efficacy.
[out] inactive

[in] For the compound shown here, `CC(C)(C)OC(=O)NCCCC[C@H](NC(=O)[C@@H]1Cc2ccccc2CN1C(=O)CCC(=O)c1ccccc1)C(=O)NCC(c1ccccc1)c1ccccc1` , give the reported Efficacy.
[out] 47%

[in] For the compound shown here, `N[C@H](CCCCNC(=O)[C@@H]1Cc2ccccc2CN1C(=O)CCC(=O)c1ccccc1)C(=O)NCC(c1ccccc1)c1ccccc1` , give the reported Efficacy.
[out] 25%

[in] For the compound shown here, `CC(C)(C)OC(=O)N[C@@H](CCCCNC(=O)[C@@H]1Cc2ccccc2CN1C(=O)CCc1ccccc1)C(=O)NCC(c1ccccc1)c1ccccc1` , give the reported Efficacy.
[out] 30%
